molecular target: Transcription factor Sp1 (Homo sapiens) (UniProt P08047); test: ATG_Sp1_CIS: Attagene CIS-FACTORIAL HepG2 Assay for human Specificity Protein 1 (Sp1) (AID 2282961); conditions: HepG2 Sp1 cis-reporter transcription, actives raise or lower the signal
Sequence (P08047 whole entry, looked up): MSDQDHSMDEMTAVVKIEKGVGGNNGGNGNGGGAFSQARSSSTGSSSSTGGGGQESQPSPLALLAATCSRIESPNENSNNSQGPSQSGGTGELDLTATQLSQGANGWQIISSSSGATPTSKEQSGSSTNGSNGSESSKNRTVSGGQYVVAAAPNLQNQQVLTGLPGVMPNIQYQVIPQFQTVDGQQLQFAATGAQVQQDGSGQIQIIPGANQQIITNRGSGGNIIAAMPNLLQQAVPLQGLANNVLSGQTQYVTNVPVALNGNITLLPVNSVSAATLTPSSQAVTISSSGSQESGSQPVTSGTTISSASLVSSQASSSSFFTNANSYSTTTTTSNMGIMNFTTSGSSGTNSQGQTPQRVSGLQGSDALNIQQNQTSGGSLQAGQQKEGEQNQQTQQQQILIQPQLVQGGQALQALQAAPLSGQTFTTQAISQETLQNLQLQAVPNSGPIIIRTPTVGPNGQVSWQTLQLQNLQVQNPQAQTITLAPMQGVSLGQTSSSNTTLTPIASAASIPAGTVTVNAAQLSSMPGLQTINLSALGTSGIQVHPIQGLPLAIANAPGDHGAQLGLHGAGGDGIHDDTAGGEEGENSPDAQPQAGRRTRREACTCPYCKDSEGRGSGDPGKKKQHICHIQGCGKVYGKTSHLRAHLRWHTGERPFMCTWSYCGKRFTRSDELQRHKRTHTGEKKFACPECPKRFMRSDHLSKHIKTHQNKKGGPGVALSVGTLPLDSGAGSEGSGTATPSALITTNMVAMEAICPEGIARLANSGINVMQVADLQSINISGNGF
Active and inactive are the calls of the source. How the source made its calls: active means hit-call score of the fitted dose curve at least 0.9, where 1 is the maximum; inactive means score below 0.9.
// classify into t (active), f (inactive)

As a guide, the following entries are already answered.
O=CC(F)(F)C(F)(F)C(F)(F)F ... f
O=S(=O)(O)c1ccccc1 ... f
CCO[Si](C)(C)OCC ... f
CCCCCCCCCCCC ... f
FC(F)=C(F)C(F)(F)C(F)(F)C(F)(F)C(F)F ... f
Nc1ccn([C@@H]2O[C@H](CO)[C@@H](O)C2O)c(=O)n1 (some centres undefined) ... f
O=S(=O)(c1ccc(OCc2ccccc2)cc1)c1ccccc1O ... t
O=C1OC(=O)C(F)(F)C1(F)F ... f

Incoming: What outcome does the record of this test show for C=CC(=O)OCCC(F)(F)C(F)(F)C(F)(F)C(F)(F)C(F)(F)C(F)(F)F ?
Outgoing: f

Incoming: What outcome does the record of this test show for Nc1cc(Cl)c(-c2cc(Cl)c(N)cc2Cl)cc1Cl ?
Outgoing: t

Incoming: What outcome does the record of this test show for CCCCCCCCCCCCCC[n+]1ccccc1 ?
Outgoing: f

Incoming: What outcome does the record of this test show for NCCN ?
Outgoing: f
